measurement target: Group 10 secretory phospholipase A2 (Homo sapiens, UniProt O15496)
Sequence (O15496 whole entry): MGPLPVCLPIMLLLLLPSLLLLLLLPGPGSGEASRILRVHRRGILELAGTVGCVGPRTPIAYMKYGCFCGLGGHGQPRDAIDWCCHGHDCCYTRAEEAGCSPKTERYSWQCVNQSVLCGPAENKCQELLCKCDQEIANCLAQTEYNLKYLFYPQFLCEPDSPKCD
procedure details: Inhibition of human group X PLA2 in [3H]oleate-labeled Escherichia coli membrane by radiometric assay
pIC50: −log10 of the molar value.
Overview of recorded pIC50 for various molecules
value kind: pIC50

> print(dat)
                                   molecule  readout.value
1  CCCCCCCCCCCCCCOC(COCCCCc1ccccc1)COc1ccc(-c2noc(=O)[nH]2)cc1 (racemic)           4.92
2  CCCCCCCCCCCCCCOC(COc1ccc(-c2noc(=O)[nH]2)cc1)COC(c1ccccc1)(c1ccccc1)c1ccccc1 (racemic)           5.90
3  Cc1c(C(=O)C(N)=O)c2c(OCC(=O)O)cccc2n1Cc1ccccc1-c1ccccc1           5.34

---

pIC50: −log10 of the molar value.
Reported pIC50 for target or system Phospholipase A2, major isoenzyme (Sus scrofa, UniProt P00592), by entry.
value kind: pIC50

> print(dat)
                                   molecule  qualifier  readout.value
1  CCCCCCCCCCCCCCOC(COCc1ccc(C#N)cc1)COc1ccc(Cc2nc(=O)o[nH]2)cc1 (racemic)          =           5.02
2  CCCCCCCOCC(COc1ccc(Cc2noc(=O)[nH]2)cc1)OCCCCCCC (racemic)          <           4.00
3  CCCCCCCCCCCCCCOC(COc1ccc(-c2noc(=O)[nH]2)cc1)COC(c1ccccc1)(c1ccccc1)c1ccccc1 (racemic)          <           4.30
4  CCCCCCCCCCCCCCOC(COCc1cccc(OC)c1)COc1ccc(-c2nc(=O)o[nH]2)cc1 (racemic)          =           4.41
5  O=c1nc(-c2ccc(OCC(COCCCCc3ccccc3)OCCCCc3ccccc3)cc2)[nH]o1 (racemic)          <           4.00

---

procedure details: Lipophilicity, log P of the compound
Assay type: physicochemical
assay conditions: octanol/water; read-out: LogP
Note to self: logP under 8 means met, ties and anything higher get not met.

> print(dat)
                                    molecule  classification
 1  CCCCCOC(COc1ccc(Cc2noc(=O)[nH]2)cc1)COc1ccc(Cc2noc(=O)[nH]2)cc1             met
 2  CCCCCCCCCCCCCCOC(COc1ccc(-c2nc(=O)o[nH]2)cc1)COc1ccc(-c2nc(=O)o[nH]2)cc1             met
 3  CCCCCCCCCCCCCCOC(COCc1ccccc1)COc1ccc(-c2noc(=O)[nH]2)cc1 (racemic)         not met
 4  CCCCCCCCCCCCCCOC(COCc1cccc(OC)c1)COc1ccc(-c2nc(=O)o[nH]2)cc1 (racemic)         not met
 5  CCCCCCCCCCCCCCOC(CO)COc1ccc(-c2noc(=O)[nH]2)cc1 (racemic)             met
 6  CCCCCCCCCCCCCCOc1ccc(Cc2noc(=O)[nH]2)cc1             met
 7  CCCCCCCCCCCCCCOCC(COc1ccc(Cc2nc(=O)o[nH]2)cc1)Oc1ccc(Cc2nc(=O)o[nH]2)cc1 (racemic)             met
 8  CCCCCCCOCC(COc1ccc(-c2noc(=O)[nH]2)cc1)OCCCCCCC (racemic)             met
 9  CCCCCCCCCCCCCCOC(COCC)COc1ccc(-c2noc(=O)[nH]2)cc1 (racemic)             met
10  CCCCCCCCCCCCCCOCC(COc1ccc(-c2noc(=O)[nH]2)cc1)Oc1ccc(-c2noc(=O)[nH]2)cc1 (racemic)             met
11  CCCCCCCCCCCCCCOC(COCc1ccc(C#N)cc1)COc1ccc(Cc2nc(=O)o[nH]2)cc1 (racemic)         not met
12  CCCCCCCCCCCCCCOC(COCCCCC)COc1ccc(-c2noc(=O)[nH]2)cc1 (racemic)         not met
13  O=c1nc(-c2ccc(OCC(COCCCCc3ccccc3)OCCCCc3ccccc3)cc2)[nH]o1 (racemic)             met
